# Test system: Vero E6 infected with SARS-CoV-2
# procedure.summary: inhibition of SARS-CoV-2 cytopathic effect; higher = more antiviral protection, active = above 15
# conditions: 1 nM; 48 h
readout.type: inhibition of SARS-CoV-2 cytopathic effect (%)

INSERT INTO measurements (compound, value_observed) VALUES
  ('Brc1c(Br)c(Br)c2[nH]nnc2c1Br', 1.42),
  ('CC(=O)O[C@]1(C(C)=O)CC[C@H]2[C@@H]3C=C(Cl)C4=CC(=O)CC[C@]4(C)[C@H]3CC[C@@]21C [chlormadinone-acetate]', -13.3),
  ('Nc1nc(NCCc2ccc(O)cc2)nc2nc(-c3ccco3)nn12', 0.11),
  ('Cc1ccc(-c2nn(C(C)(C)CNC(=O)c3ncccc3C)c3ncnc(N)c23)cc1', 0.48),
  ('O=[N+]([O-])c1cn2c(n1)OC[C@@H](OCc1ccc(OC(F)(F)F)cc1)C2', 0.26),
  ('c1ccc(CC2=NCCN2)cc1', -0.5),
  ('CC(CCc1ccc(O)cc1)NCC(O)c1ccc(O)cc1 (configuration not stated)', -2.7),
  ('Cn1cncc1[C@@](N)(c1ccc(Cl)cc1)c1ccc2c(c1)c(-c1cccc(Cl)c1)cc(=O)n2C', 0.24),
  ('CCCn1c(=O)[nH]c(=O)c2nc[nH]c21', 0.79),
  ('CCN(c1ccccc1)c1cc(=NC)n(C)c(C)n1', -6.18),
  ('Cc1ccc2c(c1)C(=O)[C@]1(O)CCN(c3ccccc3)C1=N2 (racemic) [blebbistatin-(+/-)]', 0.35),
  ('O=C1Nc2ccc(Cl)cc2[C@@](C#CC2CC2)(C(F)(F)F)O1', -5.64),
  ('O=S(=O)(O)NC1CCCCC1', -3.13),
  ('O=C1c2ccccc2-n2c1nc1ccccc1c2=O', 3.12),
  ('CN[C@H]1C(=O)N[C@@H]2Cc3ccc(cc3)Oc3cc4cc(c3O[C@@H]3O[C@H](C(=O)O)[C@@H](O)[C@H](O)[C@H]3NC(=O)CCCCCCCCC(C)C)Oc3ccc(cc3Cl)[C@@H](O)[C@@H]3NC(=O)[C@H](NC(=O)[C@@H]4NC(=O)[C@@H](NC2=O)c2cc(cc(O)c2Cl)Oc2cc1ccc2O)c1ccc(O)c(c1)-c1c(O[C@H]2O[C@H](CO)[C@@H](O)[C@H](O)[C@@H]2O)cc(O)cc1[C@@H](C(=O)NCCCN(C)C)NC3=O', -5.95),
  ('O=C(NCCCNc1nc(Nc2cccc(NC(=O)N3CCCC3)c2)ncc1I)c1cccs1', -2.02),
  ('N#Cc1ccccc1OCC(O)CNCCNC(=O)Nc1ccccc1 (configuration not stated)', 0.6),
  ('CC(=O)OCC1=C(C(=O)O)N2C(=O)[C@@H](NC(=O)CSc3ccncc3)[C@H]2SC1', -1.67),
  ('O=S(=O)(NCC1CC1)c1ccc(Nc2nccc(N3CCCc4cc(O)ccc43)n2)cc1', 2.46),
  ('CC/C=C\C/C=C\C/C=C\C/C=C\C/C=C\C/C=C\CCC(=O)OCC', -1.67),
  ('CN[C@H]1CC[C@@H](c2ccc(Cl)c(Cl)c2)c2ccccc21', -7.46),
  ('CC[C@@H](C(=O)[C@@H](C)[C@@H](O)[C@H](C)[C@@H]1O[C@@H]([C@@H](CC)C(=O)O)CC[C@@H]1C)[C@H]1O[C@]2(C=C[C@@H](O)[C@]3(CC[C@@](C)([C@H]4CC[C@](O)(CC)[C@H](C)O4)O3)O2)[C@H](C)C[C@@H]1C', -2.73);
